Measured values drawn from paper PMC6539868 for this set.

Assign IC50 to each entry below.
Tested on: LoVo-OXP
Experiment: MTT cytotoxicity assay, cross-resistance profile
Type: cell-based, human
Conditions: 72 h, MTT test, oxaliplatin-resistant colon cancer cells; read-out: IC50 (µM) ± S.D. LoVo-OXP
Respond with the bare value in µM.

IN: Quick one: IC50 of Cc1cc(C)n(C(C(=O)O)n2nc(C)cc2C)n1.Cc1cc(C)n(C(C(=O)[O-])n2nc(C)cc2C)n1.[Cu+2].[O-][Cl+3]([O-])([O-])[O-] ?
OUT: 5.2

IN: Quick one: IC50 of O=C(O)C(n1cccn1)n1cccn1.O=C(O)C(n1cccn1)n1cccn1.[Cu+2].[O-][Cl+3]([O-])([O-])[O-].[O-][Cl+3]([O-])([O-])[O-] [compound 2, [HC(COOH)(pz)2]2Cu(ClO4)2] ?
OUT: 4.9

IN: Quick one: IC50 of CO.O=C(O)C(n1cncn1)n1cncn1.O=C(O)C(n1cncn1)n1cncn1.[Cu+2].[O-][Cl+3]([O-])([O-])[O-].[O-][Cl+3]([O-])([O-])[O-] [compound 3, [HC(COOH)(tz)2]2Cu(ClO4)2·CH3OH] ?
OUT: 32.5

IN: Quick one: IC50 of O=C1[O][Pt]2([NH][C@@H]3CCCC[C@H]3[NH]2)[O]C1=O [Oxaliplatin, oxaliplatin, reference compound] ?
OUT: 15.2

----------
System: HCT-15
Assay: MTT cytotoxicity assay, 2D monolayer
Assay type: cell-based, human
Conditions: 72 h, MTT test, colon carcinoma; read-out: IC50 (µM) ± S.D. HCT-15
Assign IC50 to each entry below.
Respond with the bare value in µM.

IN: Quick one: IC50 of N.N.[Cl][Pt][Cl] [Cisplatin, cisplatin, reference compound] ?
OUT: 15.3

IN: Quick one: IC50 of CO.O=C(O)C(n1cncn1)n1cncn1.O=C(O)C(n1cncn1)n1cncn1.[Cu+2].[O-][Cl+3]([O-])([O-])[O-].[O-][Cl+3]([O-])([O-])[O-] [compound 3, [HC(COOH)(tz)2]2Cu(ClO4)2·CH3OH] ?
OUT: 59.5

IN: Quick one: IC50 of O=C(O)C(n1cccn1)n1cccn1.O=C(O)C(n1cccn1)n1cccn1.[Cu+2].[O-][Cl+3]([O-])([O-])[O-].[O-][Cl+3]([O-])([O-])[O-] [compound 2, [HC(COOH)(pz)2]2Cu(ClO4)2] ?
OUT: 9.3

IN: Quick one: IC50 of Cc1cc(C)n(C(C(=O)O)n2nc(C)cc2C)n1.Cc1cc(C)n(C(C(=O)[O-])n2nc(C)cc2C)n1.[Cu+2].[O-][Cl+3]([O-])([O-])[O-] ?
OUT: 8.5

----------
Test system: A549
Test: MTT cytotoxicity assay, 2D monolayer
Assay type: cell-based, human
Conditions: 72 h, MTT test, lung carcinoma; read-out: IC50 (µM) ± S.D. A549
MEASUREMENT_TYPE: IC50 (µM)
Respond with the bare value in µM.

IN: Quick one: IC50 of Cc1cc(C)n(C(C(=O)O)n2nc(C)cc2C)n1.Cc1cc(C)n(C(C(=O)[O-])n2nc(C)cc2C)n1.[Cu+2].[O-][Cl+3]([O-])([O-])[O-] [compound 1] ?
OUT: 3.6

IN: Quick one: IC50 of O=C(O)C(n1cccn1)n1cccn1.O=C(O)C(n1cccn1)n1cccn1.[Cu+2].[O-][Cl+3]([O-])([O-])[O-].[O-][Cl+3]([O-])([O-])[O-] [compound 2, [HC(COOH)(pz)2]2Cu(ClO4)2] ?
OUT: 5.5

IN: Quick one: IC50 of N.N.[Cl][Pt][Cl] [Cisplatin, cisplatin, reference compound] ?
OUT: 7.5

IN: Quick one: IC50 of CO.O=C(O)C(n1cncn1)n1cncn1.O=C(O)C(n1cncn1)n1cncn1.[Cu+2].[O-][Cl+3]([O-])([O-])[O-].[O-][Cl+3]([O-])([O-])[O-] [compound 3, [HC(COOH)(tz)2]2Cu(ClO4)2·CH3OH] ?
OUT: 24.5
